testSystem: CYP2C8 (Homo sapiens)
Sequence (P10632 1-490): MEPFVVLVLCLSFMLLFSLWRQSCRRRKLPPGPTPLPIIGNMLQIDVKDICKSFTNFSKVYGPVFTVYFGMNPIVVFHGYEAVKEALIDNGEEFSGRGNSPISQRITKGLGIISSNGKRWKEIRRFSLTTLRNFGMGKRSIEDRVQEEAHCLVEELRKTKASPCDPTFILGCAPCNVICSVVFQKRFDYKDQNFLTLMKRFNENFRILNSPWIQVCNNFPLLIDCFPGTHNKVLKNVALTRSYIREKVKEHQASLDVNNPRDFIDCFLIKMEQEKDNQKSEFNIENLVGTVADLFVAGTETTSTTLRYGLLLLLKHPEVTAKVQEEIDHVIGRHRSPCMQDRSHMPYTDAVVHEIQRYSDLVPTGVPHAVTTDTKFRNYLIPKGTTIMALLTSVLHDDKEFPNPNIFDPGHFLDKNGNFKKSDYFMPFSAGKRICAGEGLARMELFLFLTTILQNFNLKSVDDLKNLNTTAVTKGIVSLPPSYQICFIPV
assayInfo: Mechanism-based (time- and concentration-dependent) inactivation of CYP2C8 in human liver microsomes
Format: in vitro ADME
runParameters: pH 7.4, probe amodiaquine (2 µM), CYP2C8-mediated amodiaquine N-de-ethylation
endpointLabel: kinact (s⁻¹)
Answers are plain numbers, in s⁻¹.

Consider the compound COc1cc([C@H]2OC[C@H]3[C@@H]2CO[C@@H]3c2ccc3c(c2)OCO3)cc(OC)c1OC [Aschantin] and give its recorded kinact.
0.000933

---

testSystem: UniProtKB P05177
Sequence (P05177 whole entry): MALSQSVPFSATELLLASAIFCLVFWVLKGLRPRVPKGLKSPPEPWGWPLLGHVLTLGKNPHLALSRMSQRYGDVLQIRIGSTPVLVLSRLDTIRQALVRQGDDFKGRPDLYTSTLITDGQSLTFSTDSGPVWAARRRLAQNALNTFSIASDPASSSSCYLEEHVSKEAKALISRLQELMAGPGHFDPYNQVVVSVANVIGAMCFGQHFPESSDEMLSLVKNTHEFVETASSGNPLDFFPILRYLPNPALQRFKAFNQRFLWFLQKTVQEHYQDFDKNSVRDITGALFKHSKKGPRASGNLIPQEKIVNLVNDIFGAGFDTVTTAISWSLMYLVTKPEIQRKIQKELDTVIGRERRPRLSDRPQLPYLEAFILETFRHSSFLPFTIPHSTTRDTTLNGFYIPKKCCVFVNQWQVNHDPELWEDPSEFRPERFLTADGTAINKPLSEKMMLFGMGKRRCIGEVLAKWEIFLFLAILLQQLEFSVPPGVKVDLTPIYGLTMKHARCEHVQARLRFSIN
assayInfo: CYP1A2-catalyzed phenacetin O-de-ethylase inhibition in pooled human liver microsomes
runParameters: read-out: IC50 With Pre-incubation; CYP1A2 phenacetin O-de-ethylase, 50 µM phenacetin, 30 min pre-incubation with microsomes and NADPH
endpointLabel: IC50

Consider the compound COc1cc([C@H]2OC[C@H]3[C@@H]2CO[C@@H]3c2ccc3c(c2)OCO3)cc(OC)c1OC [Aschantin] and give its recorded IC50.
> 100 µM

---

testSystem: CYP2C9 (Homo sapiens)
assayInfo: CYP2C9-catalyzed diclofenac 4′-hydroxylase inhibition in pooled human liver microsomes
runParameters: IC50 No Pre-incubation, CYP2C9 diclofenac 4′-hydroxylase, 10 µM diclofenac, pooled human liver microsomes, no pre-incubation
endpointLabel: IC50 (µM)
Answers are plain numbers, in µM.

Consider the compound COc1cc([C@H]2OC[C@H]3[C@@H]2CO[C@@H]3c2ccc3c(c2)OCO3)cc(OC)c1OC [Aschantin] and give its recorded IC50.
40.5

---

testSystem: UniProtKB P19224
Sequence (P19224 27-532): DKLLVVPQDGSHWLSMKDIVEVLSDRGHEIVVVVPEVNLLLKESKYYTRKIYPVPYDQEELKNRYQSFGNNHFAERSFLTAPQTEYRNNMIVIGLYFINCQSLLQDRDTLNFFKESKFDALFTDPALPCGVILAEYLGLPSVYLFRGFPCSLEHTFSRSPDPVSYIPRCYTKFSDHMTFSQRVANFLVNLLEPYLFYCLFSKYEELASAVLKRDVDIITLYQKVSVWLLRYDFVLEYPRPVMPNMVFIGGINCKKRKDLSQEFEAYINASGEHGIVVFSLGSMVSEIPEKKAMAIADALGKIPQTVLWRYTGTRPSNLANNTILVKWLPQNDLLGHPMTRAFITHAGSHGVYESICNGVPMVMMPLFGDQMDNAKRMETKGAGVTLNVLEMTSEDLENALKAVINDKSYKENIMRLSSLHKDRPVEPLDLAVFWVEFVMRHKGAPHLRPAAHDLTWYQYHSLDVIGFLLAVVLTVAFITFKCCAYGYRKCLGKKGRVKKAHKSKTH
endpointLabel: pIC50
Numbers only, as −log10 of the molar value.

Name the recorded pIC50 of COc1cc([C@H]2OC[C@H]3[C@@H]2CO[C@@H]3c2ccc3c(c2)OCO3)cc(OC)c1OC [Aschantin] , assay system UniProtKB P19224.
3.84

---

testSystem: CYP3A4 (Homo sapiens)
assayInfo: CYP3A4-catalyzed midazolam 1′-hydroxylase inhibition in pooled human liver microsomes
runParameters: IC50 With Pre-incubation, CYP3A4 midazolam 1′-hydroxylase, 2.5 µM midazolam, 30 min pre-incubation with microsomes and NADPH
endpointLabel: pIC50
Numbers only, as −log10 of the molar value.

Consider the compound COc1cc([C@H]2OC[C@H]3[C@@H]2CO[C@@H]3c2ccc3c(c2)OCO3)cc(OC)c1OC [Aschantin] and give its recorded pIC50.
4.84

---

testSystem: CYP2C8 (Homo sapiens, UniProt P10632)
Sequence (P10632 1-490): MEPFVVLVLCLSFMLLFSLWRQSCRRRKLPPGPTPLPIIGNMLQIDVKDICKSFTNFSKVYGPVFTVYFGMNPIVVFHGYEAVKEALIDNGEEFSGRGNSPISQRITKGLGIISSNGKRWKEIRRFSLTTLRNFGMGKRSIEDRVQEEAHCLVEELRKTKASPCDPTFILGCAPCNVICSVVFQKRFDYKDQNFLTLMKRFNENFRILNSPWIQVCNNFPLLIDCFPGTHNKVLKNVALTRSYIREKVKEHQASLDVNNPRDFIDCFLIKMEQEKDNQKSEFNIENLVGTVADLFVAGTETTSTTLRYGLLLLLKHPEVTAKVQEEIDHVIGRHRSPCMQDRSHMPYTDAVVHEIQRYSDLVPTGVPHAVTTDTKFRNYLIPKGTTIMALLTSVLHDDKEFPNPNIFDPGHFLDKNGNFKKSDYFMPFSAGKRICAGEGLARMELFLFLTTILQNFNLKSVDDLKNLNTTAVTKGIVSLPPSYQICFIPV
endpointLabel: Ki (µM)
Numbers only, in µM.

Consider the compound COc1cc([C@H]2OC[C@H]3[C@@H]2CO[C@@H]3c2ccc3c(c2)OCO3)cc(OC)c1OC [Aschantin] and give its recorded Ki.
10.2

---

testSystem: CYP2B6 (Homo sapiens)
Construct: tissue Corning Life Sciences 452161; host or cells: pooled human liver microsomes
Sequence (P20813 1-491): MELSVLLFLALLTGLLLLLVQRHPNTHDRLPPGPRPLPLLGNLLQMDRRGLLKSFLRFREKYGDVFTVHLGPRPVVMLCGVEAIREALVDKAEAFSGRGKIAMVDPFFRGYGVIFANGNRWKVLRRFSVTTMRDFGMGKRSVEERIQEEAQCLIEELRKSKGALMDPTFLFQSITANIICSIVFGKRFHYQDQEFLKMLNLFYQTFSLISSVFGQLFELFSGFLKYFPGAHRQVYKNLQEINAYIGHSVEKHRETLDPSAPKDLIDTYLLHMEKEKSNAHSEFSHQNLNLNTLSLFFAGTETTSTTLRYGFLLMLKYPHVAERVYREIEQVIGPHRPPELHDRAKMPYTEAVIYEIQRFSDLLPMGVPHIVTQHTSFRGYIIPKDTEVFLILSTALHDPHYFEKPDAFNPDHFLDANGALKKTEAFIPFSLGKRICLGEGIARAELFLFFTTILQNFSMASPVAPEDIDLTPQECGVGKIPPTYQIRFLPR
assayInfo: CYP2B6-catalyzed bupropion hydroxylase inhibition in pooled human liver microsomes
Format: in vitro ADME
runParameters: CYP2B6 bupropion hydroxylase, 50 µM bupropion, 30 min pre-incubation with microsomes and NADPH; read-out: IC50 With Pre-incubation
endpointLabel: IC50 (µM)
Give bare numbers, in µM.

Consider the compound COc1cc([C@H]2OC[C@H]3[C@@H]2CO[C@@H]3c2ccc3c(c2)OCO3)cc(OC)c1OC [Aschantin] and give its recorded IC50.
87.9

---

testSystem: CYP3A4 (Homo sapiens, UniProt P08684)
Sequence (P08684 2-503): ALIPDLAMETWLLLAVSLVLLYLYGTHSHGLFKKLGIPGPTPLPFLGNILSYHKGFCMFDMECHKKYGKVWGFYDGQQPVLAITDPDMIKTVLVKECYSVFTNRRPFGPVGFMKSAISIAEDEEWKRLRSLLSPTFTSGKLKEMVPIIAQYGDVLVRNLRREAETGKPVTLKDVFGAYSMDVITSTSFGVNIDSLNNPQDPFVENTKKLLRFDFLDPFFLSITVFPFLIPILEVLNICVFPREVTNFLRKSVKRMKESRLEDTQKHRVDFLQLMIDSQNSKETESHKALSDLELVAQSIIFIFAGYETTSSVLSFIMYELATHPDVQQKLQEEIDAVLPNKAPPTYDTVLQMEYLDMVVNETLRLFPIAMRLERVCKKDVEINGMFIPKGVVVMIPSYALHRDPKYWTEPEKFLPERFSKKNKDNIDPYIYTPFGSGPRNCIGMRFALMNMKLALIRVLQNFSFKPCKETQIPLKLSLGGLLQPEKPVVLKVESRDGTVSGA
assayInfo: CYP3A4-catalyzed midazolam 1′-hydroxylase inhibition in pooled human liver microsomes
runParameters: human, pooled human liver microsomes, pH 7.4, probe midazolam (2.5 µM), 1′-hydroxylation
endpointLabel: IC50 shift at 0.5 h

Consider the molecule COc1cc([C@H]2OC[C@H]3[C@@H]2CO[C@@H]3c2ccc3c(c2)OCO3)cc(OC)c1OC [Aschantin] and give its recorded IC50 shift at 0.5 h.
> 2.5

---

testSystem: UGT2B7 (Homo sapiens)
Sequence (P16662 24-529): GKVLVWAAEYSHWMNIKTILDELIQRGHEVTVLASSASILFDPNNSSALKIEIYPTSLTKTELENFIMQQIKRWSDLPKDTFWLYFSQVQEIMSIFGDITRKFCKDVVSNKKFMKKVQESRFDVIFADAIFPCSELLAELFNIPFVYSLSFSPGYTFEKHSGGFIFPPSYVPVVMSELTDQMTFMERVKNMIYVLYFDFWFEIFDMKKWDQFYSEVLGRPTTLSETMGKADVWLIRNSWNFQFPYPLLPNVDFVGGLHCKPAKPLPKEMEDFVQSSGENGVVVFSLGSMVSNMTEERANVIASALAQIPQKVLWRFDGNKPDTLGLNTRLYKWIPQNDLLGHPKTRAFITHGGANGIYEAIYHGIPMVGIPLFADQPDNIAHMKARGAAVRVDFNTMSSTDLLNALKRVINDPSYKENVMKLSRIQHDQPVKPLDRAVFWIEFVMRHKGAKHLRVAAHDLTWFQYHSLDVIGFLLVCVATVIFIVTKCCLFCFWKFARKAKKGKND
endpointLabel: IC50

Name the recorded IC50 of COc1cc([C@H]2OC[C@H]3[C@@H]2CO[C@@H]3c2ccc3c(c2)OCO3)cc(OC)c1OC [Aschantin] , assay system UGT2B7 (Homo sapiens).
> 200 µM

---

testSystem: CYP2C9 (Homo sapiens, UniProt P11712)
Sequence (P11712 whole entry): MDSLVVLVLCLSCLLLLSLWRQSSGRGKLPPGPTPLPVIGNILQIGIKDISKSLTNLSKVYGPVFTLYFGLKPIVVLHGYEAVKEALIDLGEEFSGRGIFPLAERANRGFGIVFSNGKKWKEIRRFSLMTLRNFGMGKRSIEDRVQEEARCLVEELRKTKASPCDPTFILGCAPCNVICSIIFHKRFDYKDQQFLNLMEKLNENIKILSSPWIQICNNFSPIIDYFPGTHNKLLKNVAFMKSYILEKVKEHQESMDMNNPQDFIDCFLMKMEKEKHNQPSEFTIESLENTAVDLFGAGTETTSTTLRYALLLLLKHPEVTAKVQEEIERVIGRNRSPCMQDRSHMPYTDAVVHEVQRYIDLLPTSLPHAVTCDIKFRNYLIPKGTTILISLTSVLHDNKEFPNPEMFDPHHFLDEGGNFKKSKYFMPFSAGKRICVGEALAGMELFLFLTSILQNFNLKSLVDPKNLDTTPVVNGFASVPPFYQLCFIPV
assayInfo: Mechanism-based (time- and concentration-dependent) inactivation of CYP2C9 in human liver microsomes
Format: in vitro ADME
runParameters: pH 7.4, probe diclofenac (10 µM), CYP2C9-catalyzed diclofenac 4′-hydroxylation
endpointLabel: kinact (s⁻¹)
Answers are plain numbers, in s⁻¹.

Name the recorded kinact of COc1cc([C@H]2OC[C@H]3[C@@H]2CO[C@@H]3c2ccc3c(c2)OCO3)cc(OC)c1OC [Aschantin] , assay system CYP2C9 (Homo sapiens, UniProt P11712).
0.000733

---

testSystem: CYP2C8 (Homo sapiens, UniProt P10632)
assayInfo: CYP2C8-catalyzed amodiaquine N-de-ethylase inhibition in pooled human liver microsomes
runParameters: human, pooled human liver microsomes, pH 7.4, probe amodiaquine (2.0 µM), N-de-ethylation
endpointLabel: IC50 shift at 0.5 h

Consider the molecule COc1cc([C@H]2OC[C@H]3[C@@H]2CO[C@@H]3c2ccc3c(c2)OCO3)cc(OC)c1OC [Aschantin] and give its recorded IC50 shift at 0.5 h.
> 2.5
